Biological target: Fatty-acid amide hydrolase 1 (Homo sapiens)
Sequence (O00519 whole entry): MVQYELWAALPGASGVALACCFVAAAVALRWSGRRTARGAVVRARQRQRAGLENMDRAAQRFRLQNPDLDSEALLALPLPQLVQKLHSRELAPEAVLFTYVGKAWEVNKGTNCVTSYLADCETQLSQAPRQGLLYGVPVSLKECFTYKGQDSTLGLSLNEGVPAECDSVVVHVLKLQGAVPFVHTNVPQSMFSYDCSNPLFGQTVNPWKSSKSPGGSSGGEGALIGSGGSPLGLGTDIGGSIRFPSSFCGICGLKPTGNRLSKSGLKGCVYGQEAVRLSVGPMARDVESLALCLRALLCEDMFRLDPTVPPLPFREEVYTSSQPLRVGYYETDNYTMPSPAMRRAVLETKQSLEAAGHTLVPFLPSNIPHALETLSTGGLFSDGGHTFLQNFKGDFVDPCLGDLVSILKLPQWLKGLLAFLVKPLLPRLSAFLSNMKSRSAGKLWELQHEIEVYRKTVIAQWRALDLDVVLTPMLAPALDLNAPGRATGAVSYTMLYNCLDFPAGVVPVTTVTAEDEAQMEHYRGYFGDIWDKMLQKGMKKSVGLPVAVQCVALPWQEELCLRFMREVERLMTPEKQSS
Experiment: Inhibition of human FAAH-mediated hydrolysis of [3H]AEA
Please provide measured IC50 for the entries that follow.

CCNC(=O)N1CCN(CCCC(c2ccc(F)cc2)c2ccc(F)cc2)CC1 [AMPEROZIDE]    455 nM

Qu. Query IC50 on Fatty-acid amide hydrolase 1 (Homo sapiens) for COC(=O)Nc1cccc(OC(=O)Nc2cccc(C)c2)c1
Ans. 152 nM

* * *

Target: Fatty-acid amide hydrolase 1 (Homo sapiens, UniProt O00519)
Experiment: Inhibition of human FAAH
ENDPOINT_LABEL: pIC50
Numbers only, as −log10 of the molar value.

CCNC(=O)N1CCN(CCCC(c2ccc(F)cc2)c2ccc(F)cc2)CC1 [AMPEROZIDE]    5.87

Please look at the following molecule next.
Qu. Give the measured pIC50 of COC(=O)Nc1cccc(OC(=O)Nc2cccc(C)c2)c1 .
Ans. 6.42

* * *

Target: Fatty-acid amide hydrolase 1 (Rattus norvegicus)
Sequence (P97612 whole entry): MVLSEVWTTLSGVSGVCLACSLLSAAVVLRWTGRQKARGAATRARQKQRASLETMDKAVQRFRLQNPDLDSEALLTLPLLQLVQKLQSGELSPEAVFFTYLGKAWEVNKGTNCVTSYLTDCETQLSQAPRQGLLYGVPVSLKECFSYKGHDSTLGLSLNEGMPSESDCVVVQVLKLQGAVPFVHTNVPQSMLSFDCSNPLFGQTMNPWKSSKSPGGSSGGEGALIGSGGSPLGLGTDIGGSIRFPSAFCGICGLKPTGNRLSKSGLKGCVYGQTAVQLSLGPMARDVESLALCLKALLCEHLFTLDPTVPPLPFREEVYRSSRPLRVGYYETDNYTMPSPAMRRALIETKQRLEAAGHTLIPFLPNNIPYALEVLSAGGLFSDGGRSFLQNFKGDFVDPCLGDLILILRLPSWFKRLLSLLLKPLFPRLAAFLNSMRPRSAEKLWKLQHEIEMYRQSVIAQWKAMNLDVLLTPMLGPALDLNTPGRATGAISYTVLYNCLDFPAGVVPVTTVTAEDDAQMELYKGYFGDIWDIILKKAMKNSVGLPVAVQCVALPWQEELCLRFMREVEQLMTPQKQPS
ENDPOINT_LABEL: pIC50
Answers are plain numbers, as −log10 of the molar value.

Qu. Give the measured pIC50 of COC(=O)Nc1cccc(OC(=O)Nc2cccc(C)c2)c1 .
Ans. 7.11

This collection of values is drawn from ChEMBL document CHEMBL1154381.
